In this section, each of the compounds is paired with its reported MIC90.
Tested on: Mycobacterium tuberculosis
ASSAY NOTES: Antimicrobial activity against Mycobacterium bovis BCG by alamar blue assay
Assay type: functional, variant bovis BCG
MEASUREMENT LABEL: MIC90

>>> df
                                   compound                         tgt  test_result
0  COc1nc2ccc(Br)cc2cc1[C@H](c1ccccc1)[C@@](O)(CCN(C)C)c1cccc2ccccc12 (racemic; 1d)  Mycobacterium tuberculosis    1.8 µg/mL
1  COc1nc2ccc(Br)cc2cc1[C@H](c1ccccc1)[C@@](O)(CCN(C)C)c1cccc2ccccc12 (racemic; 1c)  Mycobacterium tuberculosis    7.9 µg/mL
2  COc1nc2ccc(Br)cc2cc1[C@@H](c1ccccc1)[C@@](O)(CCN(C)C)c1cccc2ccccc12 (single isomer, unassigned) [BEDAQUILINE]  Mycobacterium tuberculosis    1.8 µg/mL
3  COc1nc2ccc(Br)cc2cc1[C@@H](c1ccccc1)[C@@](O)(CCN(C)C)c1cccc2ccccc12 [BEDAQUILINE]  Mycobacterium tuberculosis   0.07 µg/mL
